test system: Danio rerio Tg(wt1b:EGFP) embryo, pronephros; assay: glomerular width (mean of left and right), fold change vs DMSO control; higher = wider glomerulus; conditions: 25 µM; exposure: 24-48 hpf
Counter-ions that a name gives are not always drawn.
The entries below come with measured glomerular width values attached.
MEASURE: glomerular width

| COMPOUND | TESTED_TARGET | MEASURE | NUMBER |
| --- | --- | --- | --- |
| Nc1nc2[nH]cc(CCc3ccc(C(=O)N[C@@H](CCC(=O)O)C(=O)O)cc3)c2c(=O)[nH]1 [Pemetrexed disodium] | Danio rerio Tg(wt1b:EGFP) embryo, pronephros | glomerular width | 1.08 |
| CC(C)(S)C(N)C(=O)O (racemic) | Danio rerio Tg(wt1b:EGFP) embryo, pronephros | glomerular width | 1.03 |
| Nc1ccc(S(=O)(=O)NC(=O)c2ccccc2)cc1 [Sulfabenzamide] | Danio rerio Tg(wt1b:EGFP) embryo, pronephros | glomerular width | 0.98 |
| CC1(C)O[C@@H]2C[C@H]3[C@@H]4C[C@H](F)C5=CC(=O)C=C[C@]5(C)[C@@]4(F)[C@@H](O)C[C@]3(C)[C@]2(C(=O)CO)O1 [Fluocinolone acetonide] | Danio rerio Tg(wt1b:EGFP) embryo, pronephros | glomerular width | 1.26 |
| CO[C@H]1/C=C/O[C@@]2(C)Oc3c(C)c(O)c4c(O)c(c5c(nc6cc(C)ccn65)c4c3C2=O)NC(=O)/C(C)=C\C=C\[C@H](C)[C@H](O)[C@@H](C)[C@@H](O)[C@@H](C)[C@H](OC(C)=O)[C@@H]1C | Danio rerio Tg(wt1b:EGFP) embryo, pronephros | glomerular width | 1.06 |
| COC(c1ccccc1)(c1ccccc1)[C@H](Oc1nc(C)cc(C)n1)C(=O)O | Danio rerio Tg(wt1b:EGFP) embryo, pronephros | glomerular width | 0.873 |
| COc1cc(NS(=O)(=O)c2ccc(N)cc2)ncn1 | Danio rerio Tg(wt1b:EGFP) embryo, pronephros | glomerular width | 0.946 |
| CCOC(=O)OC(C)OC(=O)[C@@H]1N2C(=O)[C@@H](NC(=O)[C@H](N)c3ccccc3)[C@H]2SC1(C)C (some centres undefined) [Bacampicillin hydrochloride] | Danio rerio Tg(wt1b:EGFP) embryo, pronephros | glomerular width | 1.01 |
| CC(C)(C)c1ccc(C(O)CCCN2CCC(C(O)(c3ccccc3)c3ccccc3)CC2)cc1 (centres undefined) | Danio rerio Tg(wt1b:EGFP) embryo, pronephros | glomerular width | 1.02 |
